Quantity Name: melting point

Compound: Cc1cn(C[C@@H]2CCCN(C(=O)[C@H]3CN([C@H]4c5ccc(Cl)cc5CCc5cc(F)cnc54)CCN3C(=O)OC(C)(C)C)C2)cn1
melting point: 126 to 135 °C
--
Compound: Cc1cn(CC2CCCN(C(=O)C3CN(C4c5ccc(Cl)cc5CCc5cc(Cl)cnc54)CCN3C(=O)OC(C)(C)C)C2)cn1 (stereo not shown)
melting point: 121 to 127 °C
--
Compound: Cc1cn(CC2CCCN(C(=O)C3CN(C4c5ccccc5CCc5cc(Br)cnc54)CCN3C(=O)OC3CCCCC3)C2)cn1 (stereo not shown)
melting point: 124 to 128 °C
--
Compound: Cc1cn(C[C@H]2CCCN(C(=O)[C@H]3CN([C@H]4c5ccc(Cl)cc5CCc5cc(F)cnc54)CCN3C(=O)OC3CCCCC3)C2)cn1
melting point: 120 to 126 °C
--
Compound: Cc1cn(C[C@@H]2CCCN(C(=O)[C@H]3CN([C@@H]4c5ccccc5CCc5cc(Br)cnc54)CCN3C(=O)OC(C)(C)C)C2)cn1
melting point: 102 to 119 °C

Exercise: What value of melting point has been recorded for this entry: Cc1cn(C[C@@H]2CCCN(C(=O)[C@H]3CN([C@H]4c5ccc(Cl)cc5CCc5cc(Cl)cnc54)CCN3C(=O)OC3CCCCC3)C2)cn1
Solution: 116 to 126 °C

Exercise: Now this one: CC(C)(C)NC(=O)N1CCN(C2c3ccc(Cl)cc3CCc3cc(Br)cnc32)C[C@@H]1C(=O)N1CCC[C@@H]1Cn1ccnc1 (stereo partly shown)
Solution: 137 to 139 °C

Exercise: Now this one: O=C([C@H]1CN(C2c3ccc(Cl)cc3CCc3cc(Cl)cnc32)CCN1C(=O)OC1CCCCC1)N1CCCC(Oc2cccnc2)C1 (stereo partly shown) [Example 254A]
Solution: 105 to 113 °C

Exercise: Now this one: CC(C)(C)OC(=O)N1CCN(C2c3ccc(Cl)cc3CCc3cccnc32)CC1C(=O)N1CCCC(Cn2ccnc2)C1 (stereo not shown) [Example 24]
Solution: 115 to 126 °C

Exercise: Now this one: Cc1nccn1CC1CCCN(C(=O)C2CN(C3c4ccc(Cl)cc4CCc4cc(Br)cnc43)CCN2C(=O)OC(C)(C)C)C1 (stereo not shown) [Example 3]
Solution: 126 to 131 °C

Exercise: Now this one: CC(C)(C)NC(=O)N1CCN([C@@H]2c3ccc(Cl)cc3CCc3cc(Br)cnc32)C[C@@H]1C(=O)N1CCC[C@@H](Cn2ccnc2)C1
Solution: 148 to 153 °C

Exercise: Now this one: Cc1cn(C[C@@H]2CCCN(C(=O)[C@H]3CN([C@H]4c5ccc(Cl)cc5CCc5cccnc54)CCN3C(=O)OCC(C)(C)C)C2)cn1
Solution: 103 to 115 °C

Exercise: Now this one: Cn1cncc1CC1CCCN(C(=O)C2CN(C3c4ccc(Cl)cc4CCc4cccnc43)CCN2C(=O)OC2CCCCC2)C1 (stereo not shown)
Solution: 101 to 123 °C

----------
As shown below, each of these compounds has a reported melting point value.

Solved cases (5 shown):
Compound: Cc1cn(C[C@@H]2CCCN(C(=O)[C@H]3CN([C@H]4c5ccccc5CCc5cc(Cl)cnc54)CCN3C(=O)OC3CCCCC3)C2)cn1
melting point: 114 to 118 °C
//
Compound: Cc1cn(CC2CCCN(C(=O)C3CN(C4c5ccc(Cl)cc5CCc5cccnc54)CCN3C(=O)OC3CCCCC3)C2)cn1 (stereo not drawn) [47(B)]
melting point: 133 to 139 °C
//
Compound: Cc1cn(CC2CCCN(C(=O)C3CN(C4c5ccc(Cl)cc5CCc5cccnc54)CCN3C(=O)OC(C)C)C2)cn1 (stereo not drawn) [41(B)]
melting point: 101 to 120 °C
//
Compound: CC(C)(C)OC(=O)N1CCN([C@@H]2c3ccc(Cl)cc3CCc3cc(Br)cnc32)C[C@@H]1C(=O)N1CCC[C@@H](Cn2ccnc2)C1
melting point: 135 to 138 °C
//
Compound: Cc1nccn1CC1CCCN(C(=O)C2CN(C3c4ccc(Cl)cc4CCc4cccnc43)CCN2C(=O)OC2CCCCC2)C1 (single isomer, unassigned) [Example 45]
melting point: 108 to 123 °C

Exercise: What value of melting point has been recorded for this entry: Cc1nccn1CC1CCCN(C(=O)C2CN(C3c4ccc(Cl)cc4CCc4cccnc43)CCN2C(=O)OC(C)(C)C)C1 (stereo not drawn) [Example 26]
Solution: 120 to 132 °C

----------
As shown below, each of these compounds has a reported melting point value.

Compound: CC(C)(C)OC(=O)N1CCN(C2c3ccc(Cl)cc3CCc3cc(Br)cnc32)CC1C(=O)N1CCS(=O)(=O)C(Cn2ccnc2)C1 (stereo not shown)
melting point: 179 to 182 °C
//
Compound: Cc1nccn1C[C@H]1CCCN(C(=O)[C@H]2CN([C@H]3c4ccc(Cl)cc4CCc4cccnc43)CCN2C(=O)NC(C)(C)C)C1
melting point: 111 to 140 °C

Exercise: What value of melting point has been recorded for this entry: Cc1cn(CC2CCCN(C(=O)C3CN(C4c5ccc(Cl)cc5CCc5cccnc54)CCN3C(=O)OC(C)C)C2)cn1 (stereo not shown) [Example 37]
Solution: 95 to 111 °C

Exercise: Now this one: Cc1cn(C[C@H]2CCCN(C(=O)[C@H]3CN([C@H]4c5ccccc5CCc5cc(Br)cnc54)CCN3C(=O)OC3CCCCC3)C2)cn1
Solution: 121 to 127 °C

Exercise: Now this one: Cc1nccn1CC1CCCN(C(=O)C2CN(C3c4ccc(Cl)cc4CCc4cc(Br)cnc43)CCN2C(=O)OC(C)(C)C)C1 (stereo not shown) [Example 4]
Solution: 128 to 133 °C

Exercise: Now this one: Cc1cn(C[C@@H]2CCCN(C(=O)[C@H]3CN([C@@H]4c5ccccc5CCc5cc(F)cnc54)CCN3C(=O)OC3CCCCC3)C2)cn1
Solution: 104 to 111 °C

Exercise: Now this one: O=C(C1CN(C2c3ccc(Cl)cc3CCc3cccnc32)CCN1C(=O)OC1CCCCC1)N1CCCC(Oc2cccnc2)C1 (stereo not shown)
Solution: 117 to 120 °C

Exercise: Now this one: Cc1cn(CC2CCCN(C(=O)C3CN(C4c5ccc(Cl)cc5CCc5cccnc54)CCN3C(=O)OC(C)(C)C)C2)cn1 (stereo not shown) [Example 28]
Solution: 115 to 132 °C

Exercise: Now this one: Cc1cn(C[C@H]2CCCN(C(=O)[C@H]3CN([C@@H]4c5ccc(Cl)cc5CCc5cc(F)cnc54)CCN3C(=O)OC3CCCCC3)C2)cn1
Solution: 121 to 125 °C

Exercise: Now this one: CCc1cn(CC2CCCN(C(=O)C3CN(C4c5ccc(Cl)cc5CCc5cccnc54)CCN3C(=O)OC(C)(C)C)C2)cn1 (stereo not shown) [35(C)]
Solution: 104 to 106 °C

Exercise: Now this one: CC(C)OC(=O)N1CCN([C@@H]2c3ccc(Cl)cc3CCc3cc(Br)cnc32)C[C@@H]1C(=O)N1CCC[C@@H](Cn2ccnc2)C1
Solution: 126 to 128 °C

Exercise: Now this one: O=C(C1CN(C2c3ccc(Cl)cc3CCc3cccnc32)CCN1C(=O)OC1CCCCC1)N1CCCC(Cc2cnc[nH]2)C1 (stereo not shown)
Solution: 113 to 115 °C

Exercise: Now this one: Cc1cn(C[C@@H]2CCCN(C(=O)[C@H]3CN([C@@H]4c5ccccc5CCc5cc(Cl)cnc54)CCN3C(=O)OC3CCCCC3)C2)cn1
Solution: 115 to 120 °C

----------
As shown below, each of these compounds has a reported melting point value.

Solved cases (5 shown):
Compound: Cc1cn(CC2CCCN(C(=O)C3CN(C4c5ccc(Cl)cc5CCc5cccnc54)CCN3C(=O)OC(C)C)C2)cn1 (stereo not drawn) [41(A)]
melting point: 117 to 120 °C
--
Compound: Cc1cn(CC2CCCN(C(=O)C3CN(C4c5ccc(Cl)cc5CCc5cccnc54)CCN3C(=O)OC(C)C)C2)cn1 (stereo not drawn) [Example 36]
melting point: 123 to 132 °C
--
Compound: Cc1cn(C[C@H]2CCCN(C(=O)[C@H]3CN([C@H]4c5ccc(Cl)cc5CCc5cc(Cl)cnc54)CCN3C(=O)OC(C)(C)C)C2)cn1 [Example 229]
melting point: 102 to 113 °C
--
Compound: Cc1cn(CC2CCCN2C(=O)C2CN(C3c4ccc(Cl)cc4CCc4cccnc43)CCN2C(=O)OC(C)(C)C)cn1 (stereo not drawn) [35(F)]
melting point: 115 to 120 °C
--
Compound: Cc1cn(C[C@@H]2CCCN(C(=O)[C@H]3CN([C@@H]4c5ccc(Cl)cc5CCc5ccc[n+]([O-])c54)CCN3C(=O)OC3CCCCC3)C2)cn1 [Example 388]
melting point: 108 to 113 °C

Next compound, melting point to be filled in.
Exercise: What value of melting point has been recorded for this entry: Cc1cn(C[C@@H]2CCCN(C(=O)[C@H]3CN([C@H]4c5ccc(Cl)cc5CCc5ccc[n+]([O-])c54)CCN3C(=O)OC3CCCCC3)C2)cn1 [Example 387]
Solution: 85 to 90 °C
